Test System: T1, recombinant NT-proBMP10 (22-312) (human, UniProt O95393 22-312)
T1 construct: In-house construct; also called pro-peptide BMP10; BMP10(312)
T1 sequence: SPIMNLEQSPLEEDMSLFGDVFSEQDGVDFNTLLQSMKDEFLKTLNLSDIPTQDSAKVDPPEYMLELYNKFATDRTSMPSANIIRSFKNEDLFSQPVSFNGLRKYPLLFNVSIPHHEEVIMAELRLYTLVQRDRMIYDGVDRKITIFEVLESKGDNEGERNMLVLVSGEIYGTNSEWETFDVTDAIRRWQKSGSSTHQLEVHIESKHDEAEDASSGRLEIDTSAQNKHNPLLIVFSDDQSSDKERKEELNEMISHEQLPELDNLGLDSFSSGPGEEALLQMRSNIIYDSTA
Test Description: SPR Biacore 8K, 37°C, mAb captured, BMP10(312) as analyte; ln(2)/60*kd
For each of the binders below, state its t/2 diss (complex half-life).
One number for each entry, in min.

Field: t/2 diss (complex half-life). Fill in for each record below.
1. MAB<BMP10>rRb-3H8 HC3/LC3 (p10qx/p10qy)-IgG(SPA) (antibody, V domains shown, Recombinant rabbit monoclonal IgG; also called clone 3H8; VH-7/VL-7) VH: QSVEESGGRLVTPGTPLTLTCTASGFSLSKYDMSWVRQAPGKGLEWIGAIGGRGVTDYTTWAKGRFTISKTATTVDLKMTSPTTEDTATYFCVRALAGDTLWGPGTLVTVSS VL: AQVLTQTASPVSAAVGSTVTINCQASQNIYKYNNLAWYQQKPGQPPKRLIYEASKLASGVPSRFSGSGSGTQFTLTISGVQCEDAATYYCQGTFECSSADCFGFGGGTEVVVK
2. MAB<BMP10>rRb-2H8 HC7/LC6 (p10qv/p10qw)-IgG(SPA) (antibody, V domains shown, Recombinant rabbit monoclonal IgG; also called clone 2H8; VH-6/VL-6) VH: QSVEESGGRLVTPGTPLTLTCTASAFSLSRYVMSWVRQAPGKGLEFIGFINASGSTSYASWAKGRFTISKTSTTVDLKMTSLTTEDTATYFCATGNLWGPGTLVTVSS VL: DIVMTQTPSSVSGPVGGTVTINCQASQNIYSNLAWYQQKPGQPPKLLIYYASTLVSGVPSRFKGSGSGTQFTLTISDLECANAATYYCQSKDGPTSSTYGAFGGGTEVVVR

[15, 38]
